# Tested on: Candida glabrata
# protocol: checkerboard drug interaction (FICI, MICc);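 further: simplified diagonal checkerboard screen pairing antifungals with FPPS inhibitors, FICI calculated under the Loewe additivity model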
# Type: cell-based
# condition details: C. glabrata; KET:INH combination; fold decrease of inhibitor MIC
Please go through the items and note down their INH FD (MIC-MICc fold decrease).
Numbers only.

[
  {
    "record smiles": "CCCCCCCCCCCN1CCC[C@H]1C(=O)N[C@H](CC(=O)OC)C(=O)OC",
    "INH FD (MIC-MICc fold decrease)": 4
  },
  {
    "record smiles": "CCCCCCCCCCCN1CCC[C@H]1C(=O)N[C@@H](CC(=O)O)C(=O)O",
    "INH FD (MIC-MICc fold decrease)": 128
  },
  {
    "record smiles": "CCCCCCCCCN1CCC[C@H]1C(=O)N[C@H](CC(=O)O)C(=O)O",
    "INH FD (MIC-MICc fold decrease)": 128
  },
  {
    "record smiles": "CCCCCCCCCCCCN1CCC[C@H]1C(=O)N[C@H](CC(=O)O)C(=O)O",
    "INH FD (MIC-MICc fold decrease)": 128
  }
]

Attention now shifts to the item below.
IN: What INH FD (MIC-MICc fold decrease) appears in the records for this compound with Candida glabrata? CCCCCCCCCN1CCC[C@H]1C(=O)N[C@@H](CC(=O)OC)C(=O)OC
OUT: 32
